assay: Plasma stability, rat plasma (Wistar Han / wistar hannover; Table 5 head SD Rat); type: in vitro ADME; details: wistar hannover rat plasma, 2 μM, anti-coagulant K2-EDTA
parameter.measured: T1/2 (min)
Give bare numbers, in min.

Examples from the recorded data:
CNS(=O)(=O)Nc1cccc(Cc2c(CN(C)C)c3cc(F)c(OC(=O)N(C)C)cc3oc2=O)c1F :: 3326
CCS(=O)(=O)Nc1cccc(Cc2c(CN(C)C)c3ccc(OC(=O)N(C)C)cc3oc2=O)c1F :: 2561
CNS(=O)(=O)Nc1cccc(Cc2c(CN(C)C)c3ccc(OC(=O)N(C)C)cc3oc2=O)c1F :: 1180

Read the next record carefully.
Request: For the compound CNS(=O)(=O)Nc1cccc(Cc2c(CN3CCNCC3)c3cc(F)c(OC(=O)N(C)C)cc3oc2=O)c1F , report T1/2.
Result: 1269
